Reference for the values: patent US9458113B2

assaySystem: Human neutrophil elastase (Homo sapiens (Human))
assayProtocol: Human Neutrophil Elastase Assay
conditionLabel: substrate MeOSuc-Ala-Ala-Pro-Val-AMC 250 μM, pH 7.5
pIC50: −log10 of the molar value.
readoutLabel: pIC50

CN1C(=O)N(c2cccc(C(F)(F)F)c2)C2=C(C(=O)CC2)C1c1ccc(C#N)cc1C(=O)NCc1ccc(C#N)o1 (stereo not shown) = 8.16
Cc1nnc(-c2cc(C#N)ccc2C2C3=C(CCC3=O)N(c3cccc(C(F)(F)F)c3)C(=O)N2C)o1 (stereo not shown) = 8.66
CN(C)C(=O)c1cc(C#N)ccc1C1C2=C(CCC2=O)N(c2cccc(C(F)(F)F)c2)C(=O)N1C (stereo not shown) = 8.27
CN1C(=O)N(c2cccc(C(F)(F)F)c2)C2=C(C(=O)CC2)C1c1ccc(C#N)cc1C(=O)NC1CCOC1 (stereo not shown) = 8.16

A. CN1C(=O)N(c2ccnc(C(F)(F)F)c2)C2=C(C(=O)CC2)C1c1ccc(C#N)cc1-c1ccn(C)n1 (stereo not shown)
B. CNC(=O)c1cc(C#N)ccc1[C@@H]1C2=C(CCC2=O)N(c2cccc(C(F)(F)F)c2)C(=O)N1C
*Q* Form: Entry with minimum pIC50 (choose one): A / B To answer, give the label that identifies your chosen option.
*A* A

====

assaySystem: Human neutrophil elastase (Homo sapiens (Human), UniProt P08246)
Sequence (P08246 30-247): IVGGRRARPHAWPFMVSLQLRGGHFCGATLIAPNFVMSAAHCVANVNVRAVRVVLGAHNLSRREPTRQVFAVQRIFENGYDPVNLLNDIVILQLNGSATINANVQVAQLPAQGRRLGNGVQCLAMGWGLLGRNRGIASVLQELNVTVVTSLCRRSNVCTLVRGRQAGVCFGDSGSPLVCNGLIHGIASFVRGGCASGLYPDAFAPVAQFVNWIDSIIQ
assayProtocol: Human Neutrophil Elastase Assay
conditionLabel: substrate MeOSuc-Ala-Ala-Pro-Val-AMC 250 μM, pH 7.5
pIC50: −log10 of the molar value.
readoutLabel: pIC50

Consider the following illustrative entries.
CN1C(=O)N(c2cccc(C(F)(F)F)c2)C2=C(C(=O)CC2)C1c1ccc(C#N)cc1-c1ccco1 (stereo not drawn) = 8.48
CN1C(=O)N(c2cccc(C(F)(F)F)c2)C2=C(C(=O)CC2)C1c1ccc(C#N)cc1-c1ccoc1 (stereo not drawn) = 8.48
CN1C(=O)N(c2cccc(C(F)(F)F)c2)C2=C(C(=O)CC2)C1c1ccc(C#N)cc1C(=O)NCc1ccoc1 (stereo not drawn) = 8.47

A. CN1C(=O)N(c2cccc(C(F)(F)F)c2)C2=C(C(=O)CC2)C1c1ccc(C#N)cc1C(=O)NCc1cccnn1 (stereo not drawn)
B. CC(NC(=O)c1cc(C#N)ccc1C1C2=C(CCC2=O)N(c2cccc(C(F)(F)F)c2)C(=O)N1C)c1ccco1 (stereo not drawn)
C. CN(Cc1ccn(C)n1)C(=O)c1cc(C#N)ccc1C1C2=C(CCC2=O)N(c2cccc(C(F)(F)F)c2)C(=O)N1C (stereo not drawn)
*Q* Hi! Can you put these in order of pIC50, lowest number first? Return value: ordered labels per request.
*A* B, A, C
(B: 8.18, A: 8.54, C: 8.89)

====

assaySystem: Human neutrophil elastase (Homo sapiens (Human))
assayProtocol: Human Neutrophil Elastase Assay
Format: biochemical
conditionLabel: substrate MeOSuc-Ala-Ala-Pro-Val-AMC 250 μM, pH 7.5
readoutLabel: IC50 (nM)

CN1C(=O)N(c2cccc(C(F)(F)F)c2)C2=C(C(=O)CC2)C1c1ccc(C#N)cc1C(=O)NCc1cn[nH]c1 (stereo not drawn) = 5
CN1C(=O)N(c2cccc(C(F)(F)F)c2)C2=C(C(=O)CC2)C1c1ccc(C#N)cc1C(=O)NCc1cnoc1 (stereo not drawn) = 1.9
CN1C(=O)N(c2cccc(C(F)(F)F)c2)C2=C(C(=O)CC2)C1c1ccc(C#N)cc1C(=O)NCc1ncco1 (stereo not drawn) = 3.8
CN1C(=O)N(c2cccc(C(F)(F)F)c2)C2=C(C(=O)CC2)C1c1ccc(C#N)cc1C(=O)NCc1nccn1C (stereo not drawn) = 2.4
CN1C(=O)N(c2cccc(C(F)(F)F)c2)C2=C(C(=O)CC2)C1c1ccc(C#N)cc1-c1ccc2c(cnn2C)c1 (stereo not drawn) = 7.9

A. CN1C(=O)N(c2cccc(C(F)(F)F)c2)C2=C(C(=O)CCC2)C1c1ccc(C#N)cc1C1=COCC1 (stereo not drawn)
B. Cc1noc(-c2cc(C#N)ccc2C2C3=C(CCC3=O)N(c3cccc(C(F)(F)F)c3)C(=O)N2C)n1 (stereo not drawn)
*Q* Form: Entry with minimum IC50 (choose one): A / B To answer, give the label that identifies your chosen option.
*A* A

a. CN1C(=O)N(c2cccc(C(F)(F)F)c2)C2=C(C(=O)CC2)C1c1ccc(C#N)cc1C(=O)NCCF (stereo not drawn)
b. CN1C(=O)N(c2cccc(C(F)(F)F)c2)C2=C(C(=O)CCC2)C1c1ccc(C#N)cc1-c1cn[nH]c1 (stereo not drawn)
*Q* Could you please tell me which of these two has the higher IC50: a or b ? To answer, give the label that identifies your chosen option.
*A* a

====

assaySystem: Human neutrophil elastase (Homo sapiens (Human), UniProt P08246)
assayProtocol: Human Neutrophil Elastase Assay
conditionLabel: substrate MeOSuc-Ala-Ala-Pro-Val-AMC 250 μM, pH 7.5
pIC50: −log10 of the molar value.
readoutLabel: pIC50

A. CN1C(=O)N(c2cccc(C(F)(F)F)c2)C2=C(C(=O)CC2)C1c1ccc(C#N)cc1C(=O)N1CCC(N)CC1 (stereo not shown) [Example 4.1]
B. COCCCN(C)C(=O)c1cc(C#N)ccc1C1C2=C(CCC2=O)N(c2cccc(C(F)(F)F)c2)C(=O)N1C (stereo not shown) [Example 1.24]
*Q* Could you please tell me which of these two has the higher pIC50: A or B ? To answer, give the label that identifies your chosen option.
*A* B

====

assaySystem: Human neutrophil elastase (Homo sapiens (Human), UniProt P08246)
assayProtocol: Human Neutrophil Elastase Assay
Assay type: biochemical
conditionLabel: substrate MeOSuc-Ala-Ala-Pro-Val-AMC 250 μM, pH 7.5
pIC50: −log10 of the molar value.
readoutLabel: pIC50

Consider the following illustrative entries.
CN1C(=O)N(c2cccc(C(F)(F)F)c2)C2=C(C(=O)CCC2)C1c1ccc(C#N)cc1C(N)=O (single isomer, unassigned) [Example 7a] = > 9.00
CN1C(=O)N(c2cccc(C(F)(F)F)c2)C2=C(C(=O)CCC2)[C@H]1c1ccc(C#N)cc1-c1ccn(C)c(=O)c1 = > 9.00

*Q* Bench note: what pIC50 did CN1C(=O)N(c2cccc(C(F)(F)F)c2)C2=C(C(=O)CC2)C1c1ccc(C#N)cc1C(=O)N1CC2COCC(C1)N2 (stereo not drawn) show?
*A* 7.44

====

assaySystem: Human neutrophil elastase (Homo sapiens (Human), UniProt P08246)
assayProtocol: Human Neutrophil Elastase Assay
conditionLabel: substrate MeOSuc-Ala-Ala-Pro-Val-AMC 250 μM, pH 7.5
readoutLabel: IC50 (nM)

Consider the following illustrative entries.
CN1C(=O)N(c2cccc(C(F)(F)F)c2)C2=C(C(=O)CC2)C1c1ccc(C#N)cc1-c1ccn(C)n1 (centres unmarked) = 8.7
CNCCNC(=O)c1cc(C#N)ccc1C1C2=C(CCC2=O)N(c2cccc(C(F)(F)F)c2)C(=O)N1C (centres unmarked) = 4.7
CN1C(=O)N(c2cccc(C(F)(F)F)c2)C2=C(C(=O)CC2)C1c1ccc(C#N)cc1C(=O)NC1COC1 (centres unmarked) = 5.3
CN1C(=O)N(c2ccnc(C(F)(F)F)c2)C2=C(C(=O)CC2)C1c1ccc(C#N)cc1C(=O)N1CCCC1 (centres unmarked) = 32.8
CN1C(=O)N(c2cccc(C(F)(F)F)c2)C2=C(C(=O)CC2)C1c1ccc(C#N)cc1C(=O)N1CCn2ncnc2C1 (centres unmarked) = 1.9

a. CN1C(=O)N(c2cccc(C(F)(F)F)c2)C2=C(C(=O)CC2)C1c1ccc(C#N)cc1-c1cnco1 (centres unmarked)
b. COCCCNC(=O)c1cc(C#N)ccc1C1C2=C(CCC2=O)N(c2cccc(C(F)(F)F)c2)C(=O)N1C (centres unmarked)
*Q* Form: Entry with minimum IC50 (choose one): a / b To answer, give the label that identifies your chosen option.
*A* a
(a: 1.2 nM, b: 5.7 nM)

====

assaySystem: Human neutrophil elastase (Homo sapiens (Human), UniProt P08246)
assayProtocol: Human Neutrophil Elastase Assay
Type: biochemical
conditionLabel: substrate MeOSuc-Ala-Ala-Pro-Val-AMC 250 μM, pH 7.5
pIC50: −log10 of the molar value.
readoutLabel: pIC50

a. CN1C(=O)N(c2cccc(C(F)(F)F)c2)C2=C(C(=O)CC2)C1c1ccc(C#N)cc1-c1cncs1 (stereo not shown)
b. CN1C(=O)N(c2cccc(C(F)(F)F)c2)C2=C(C(=O)CC2)C1c1ccc(C#N)cc1C(=O)NCc1ccncc1 (stereo not shown)
c. CN1C(=O)N(c2cccc(C(F)(F)F)c2)C2=C(C(=O)CC2)C1c1ccc(C#N)cc1C(=O)N1CCN2CCCC2C1 (stereo not shown)
*Q* With regard to pIC50, arrange the entries in ascending order, please. Return value: ordered labels per request.
*A* c, b, a
